Reference for the values: paper PMC4265764

Quick reference for pKd among some binders
# Study System: superfolder GFP (sfGFP) (UniProt P42212 = GFP, biotin (in-vivo biotinylated, in the ELISA))
# Sequence (P42212 other isoform, or with tags, fused parts or gaps): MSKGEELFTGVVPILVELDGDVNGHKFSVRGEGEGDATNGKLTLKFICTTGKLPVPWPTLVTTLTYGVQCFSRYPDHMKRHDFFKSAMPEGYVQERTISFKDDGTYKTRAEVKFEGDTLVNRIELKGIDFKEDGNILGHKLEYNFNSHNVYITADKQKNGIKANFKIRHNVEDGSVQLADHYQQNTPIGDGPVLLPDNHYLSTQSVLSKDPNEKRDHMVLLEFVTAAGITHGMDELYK
# Test Summary: FP
# pKd = -log10(concentration in molar units)

Binder: DARPin 3G124 (designed binder) DLGKKLLEAARAGQDDEVRILMANGADVNAADDVGVTPLHLAAQRGHLEIVEVLLKYGADVNAADLWGQTPLHLAATAGHLEIVEVLLKNGADVNARDNIGHTPLHLAAWAGHLEIVEVLLKYGADVNAQDKFGKTAFDISIDNGNEDLAEILQ
Reported Metric: pKd
Assay Value: 7.66
--
Binder: DARPin 3G61 (designed binder) MRGSHHHHHHGSDLGKKLLEAARAGQDDEVRILMANGADVNALDEVGWTPLHLAAWGHLEIVEVLLKNGADVNAADIDGYTPLHLAAFSGHLEIVEVLLKYGADVNADDQAGFTPLHLAAIFGHLEIVEVLLKNGADVNAQDKFGKTAFDISIDNGNEDLAEILQKLN
Reported Metric: pKd
Assay Value: 7.02
--
Binder: DARPin 3G86.1 (designed binder) MRGSHHHHHHGSDLGKKLLEAARAGQDDEVRILMANGADVNALDRFGLTPLHLAAQRGHLEIVEVLLKCGADVNAADLWGQTPLHLAATAGHLEIVEVLLKNGADVNARDNIGHTPLHLAAWAGHLEIVEVLLKHGADVNAQDKFGKTAFDISIDNGNEDLAEILQKLN
Reported Metric: pKd
Assay Value: 7.54

Please look up its pKd: DARPin 3G86.32 (designed binder) MRGSHHHHHHGSDLGKKLLEAARAGQDDEVRILMANGADVNALDRFGLTPLHLAAQRGHLEIVEVLLKCGADVNAADLWGQTPLHLAATAGHLEIVEVLLKYGADVNALDLIGKTPLHLTAIDGHLEIVEVLLKHGADVNAQDKFGKTAFDISIDNGNEDLAEILQKLN
8.28
